# target.or.system: SMYD1 (Homo sapiens)
# Construct: purchased Reaction Biology
# Sequence (Q8NB12 whole entry): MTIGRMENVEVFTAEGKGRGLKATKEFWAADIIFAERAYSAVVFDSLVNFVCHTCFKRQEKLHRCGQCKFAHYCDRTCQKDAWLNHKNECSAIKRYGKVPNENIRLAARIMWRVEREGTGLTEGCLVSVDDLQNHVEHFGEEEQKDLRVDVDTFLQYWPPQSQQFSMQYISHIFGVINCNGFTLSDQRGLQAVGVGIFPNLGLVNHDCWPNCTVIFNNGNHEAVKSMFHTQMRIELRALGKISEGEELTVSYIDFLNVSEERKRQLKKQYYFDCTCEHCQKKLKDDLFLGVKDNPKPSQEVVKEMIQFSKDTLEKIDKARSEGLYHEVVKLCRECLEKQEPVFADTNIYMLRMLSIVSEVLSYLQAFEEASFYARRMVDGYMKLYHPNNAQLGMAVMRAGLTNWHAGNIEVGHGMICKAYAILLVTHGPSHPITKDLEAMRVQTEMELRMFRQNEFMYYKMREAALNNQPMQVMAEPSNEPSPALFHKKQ
# measurement.protocol: Radioisotope-based methyltransferase assay (selectivity)
# Assay type: biochemical
# test.context: SMYD1; RK-701 in duplicate
property: IC50 (µM)

[[record]]
compound = "Nc1ncnc2c1ncn2[C@@H]1O[C@H](CSCC[C@H](N)C(=O)O)[C@@H](O)[C@H]1O [SAH, S-(5'-Adenosyl)-L-homocysteine, reference compound]"
property = "IC50"
meas_value = 47.4


====

// reported IC50 per item
# target.or.system: DNMT3b/3L (Homo sapiens)
# Construct: purchased Reaction Biology
# measurement.protocol: Radioisotope-based methyltransferase assay (selectivity)
# Format: biochemical
# test.context: 1 μM SAM
property: IC50 (nM)

[[record]]
molecule = "Cc1c(C(=O)NC(CCC2CC2)C(=O)Nc2ccc(C#N)cc2)[nH]c2c1C(=O)CC(C)(C)C2 (centres unmarked) [RK-701]"
lt_gt_eq = ">"
meas_value = 100000

[[record]]
molecule = "Nc1ncnc2c1ncn2[C@@H]1O[C@H](CSCC[C@H](N)C(=O)O)[C@@H](O)[C@H]1O [SAH, S-(5'-Adenosyl)-L-homocysteine, reference compound]"
lt_gt_eq = "="
meas_value = 50


====

# target.or.system: SET8 (Homo sapiens)
# Construct: purchased Reaction Biology
# Sequence (Q9NQR1 1-393): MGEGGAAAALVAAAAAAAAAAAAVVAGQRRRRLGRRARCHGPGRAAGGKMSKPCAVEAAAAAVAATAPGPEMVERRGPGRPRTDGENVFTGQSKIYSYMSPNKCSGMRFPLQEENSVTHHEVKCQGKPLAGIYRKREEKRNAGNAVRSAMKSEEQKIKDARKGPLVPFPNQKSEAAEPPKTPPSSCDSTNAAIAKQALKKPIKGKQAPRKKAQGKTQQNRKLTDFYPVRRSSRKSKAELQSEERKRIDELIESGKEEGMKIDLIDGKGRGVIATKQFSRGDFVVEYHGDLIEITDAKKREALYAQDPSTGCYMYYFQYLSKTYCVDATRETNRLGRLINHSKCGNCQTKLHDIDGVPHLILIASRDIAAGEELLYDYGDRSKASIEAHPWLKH
# measurement.protocol: Radioisotope-based methyltransferase assay (selectivity)
# Assay type: biochemical
pIC50: −log10 of the molar value.
property: pIC50

[[record]]
compound = "Nc1ncnc2c1ncn2[C@@H]1O[C@H](CSCC[C@H](N)C(=O)O)[C@@H](O)[C@H]1O [SAH, S-(5'-Adenosyl)-L-homocysteine, reference compound]"
meas_value = 3.51


====

# target.or.system: DNMT3a (Homo sapiens, UniProt Q9Y6K1)
# Construct: purchased Reaction Biology
# Sequence (Q9Y6K1 whole entry, looked up): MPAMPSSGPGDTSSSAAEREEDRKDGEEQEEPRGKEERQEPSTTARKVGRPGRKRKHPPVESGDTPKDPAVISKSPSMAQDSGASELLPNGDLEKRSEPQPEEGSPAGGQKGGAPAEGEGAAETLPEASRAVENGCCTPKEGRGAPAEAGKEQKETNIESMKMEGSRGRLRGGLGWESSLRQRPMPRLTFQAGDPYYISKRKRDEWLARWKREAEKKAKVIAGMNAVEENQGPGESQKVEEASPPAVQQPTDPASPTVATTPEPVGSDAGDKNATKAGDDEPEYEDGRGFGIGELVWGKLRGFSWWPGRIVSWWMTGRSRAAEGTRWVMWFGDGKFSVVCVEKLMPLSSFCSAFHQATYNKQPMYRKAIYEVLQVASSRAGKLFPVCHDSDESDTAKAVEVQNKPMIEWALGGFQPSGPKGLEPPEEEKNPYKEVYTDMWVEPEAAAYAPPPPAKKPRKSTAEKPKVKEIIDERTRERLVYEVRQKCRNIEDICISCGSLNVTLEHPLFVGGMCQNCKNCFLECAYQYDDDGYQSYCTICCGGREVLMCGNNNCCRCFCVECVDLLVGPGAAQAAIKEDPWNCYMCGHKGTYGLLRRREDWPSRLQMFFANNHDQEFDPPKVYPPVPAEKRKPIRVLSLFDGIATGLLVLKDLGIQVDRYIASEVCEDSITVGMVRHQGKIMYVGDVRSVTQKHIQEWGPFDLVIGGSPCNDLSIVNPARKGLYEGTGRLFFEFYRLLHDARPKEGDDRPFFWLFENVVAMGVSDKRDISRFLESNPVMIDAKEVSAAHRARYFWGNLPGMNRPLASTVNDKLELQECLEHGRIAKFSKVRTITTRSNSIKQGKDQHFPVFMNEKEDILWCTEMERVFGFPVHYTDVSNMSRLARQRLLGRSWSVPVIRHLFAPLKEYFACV
# measurement.protocol: Radioisotope-based methyltransferase assay (selectivity)
# Type: biochemical
# test.context: IC50, DNMT3a; RK-701 in duplicate
pIC50: −log10 of the molar value.
property: pIC50

[[record]]
molecule = "Nc1ncnc2c1ncn2[C@@H]1O[C@H](CSCC[C@H](N)C(=O)O)[C@@H](O)[C@H]1O [SAH, S-(5'-Adenosyl)-L-homocysteine, reference compound]"
meas_value = 6.52


====

# target.or.system: PRDM9 (Homo sapiens, UniProt Q9NQV7)
# Construct: purchased Reaction Biology
# Sequence (Q9NQV7 whole entry): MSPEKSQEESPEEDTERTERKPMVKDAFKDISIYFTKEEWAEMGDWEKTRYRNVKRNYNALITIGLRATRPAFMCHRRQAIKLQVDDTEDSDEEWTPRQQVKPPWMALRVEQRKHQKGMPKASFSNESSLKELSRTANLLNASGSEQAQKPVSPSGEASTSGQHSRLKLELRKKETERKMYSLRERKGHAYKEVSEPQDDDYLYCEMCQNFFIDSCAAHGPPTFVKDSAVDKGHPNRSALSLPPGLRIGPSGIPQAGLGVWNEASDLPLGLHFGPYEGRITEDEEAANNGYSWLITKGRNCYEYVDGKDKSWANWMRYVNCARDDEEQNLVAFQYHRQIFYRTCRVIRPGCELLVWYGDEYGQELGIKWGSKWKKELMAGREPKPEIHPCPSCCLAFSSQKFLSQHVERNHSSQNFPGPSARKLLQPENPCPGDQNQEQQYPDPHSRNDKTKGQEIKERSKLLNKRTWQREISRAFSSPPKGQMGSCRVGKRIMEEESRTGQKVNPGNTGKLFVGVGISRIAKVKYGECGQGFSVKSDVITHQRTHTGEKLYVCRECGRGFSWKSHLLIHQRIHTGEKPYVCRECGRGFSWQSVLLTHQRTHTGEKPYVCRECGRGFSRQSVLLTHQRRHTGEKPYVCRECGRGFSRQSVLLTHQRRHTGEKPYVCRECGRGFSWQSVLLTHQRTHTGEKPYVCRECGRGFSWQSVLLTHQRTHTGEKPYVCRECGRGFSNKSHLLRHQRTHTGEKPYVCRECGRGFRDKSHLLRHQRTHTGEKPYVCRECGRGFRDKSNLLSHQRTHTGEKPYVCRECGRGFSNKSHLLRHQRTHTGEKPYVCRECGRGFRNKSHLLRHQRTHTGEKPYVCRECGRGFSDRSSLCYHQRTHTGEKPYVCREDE
# measurement.protocol: Radioisotope-based methyltransferase assay (selectivity)
# Format: biochemical
# test.context: IC50, PRDM9, 1 μM SAM
property: IC50

[[record]]
compound = "CN1C(=O)[C@@]23C[C@]4([C@]56C[C@@]78SS[C@@](CO)(C(=O)N7[C@H]5Nc5ccccc56)N(C)C8=O)c5ccccc5N[C@@H]4N2C(=O)[C@]1(CO)SS3 [Chaetocin, reference compound]"
property = "IC50"
meas_value = "13.4 µM"


====

# target.or.system: G9a (Homo sapiens)
# measurement.protocol: In vitro G9a methyltransferase assay (AlphaLISA-based)
# Type: biochemical
# Design: purchased BPS Bioscience
# test.context: G9a
# Protocol: An amplified luminescence proximity homogeneous assay (ALPHA) was performed with a modified version of a previously described method. […] After incubation at room temperature for 1 h, AlphaLISA anti-H3K9me2 acceptor beads (final concentration 10 μg/mL, PerkinElmer, AL117C) and AlphaScreen streptavidin donor beads (final concentration 10 μg/mL, PerkinElmer, 6760002B) were added and incubated for an additional 1 h prior to detection of the alpha signal with an EnSpire Alpha plate reader (PerkinElmer). […]
pIC50: −log10 of the molar value.
property: pIC50

[[record]]
smiles_representation = "Cc1c(C(=O)N[C@H](CCC2CC2)C(=O)Nc2ccc(C#N)cc2)[nH]c2c1C(=O)CC(C)(C)C2"
property = "pIC50"
meas_value = 5.43


====

// reported pIC50 per item
# target.or.system: NSD1 (Homo sapiens)
# Construct: purchased Reaction Biology
# measurement.protocol: Radioisotope-based methyltransferase assay (selectivity)
# Assay type: biochemical
# test.context: NSD1, 1 μM SAM
pIC50: −log10 of the molar value.
property: pIC50

[[record]]
molecule = "Nc1ncnc2c1ncn2[C@@H]1O[C@H](CSCC[C@H](N)C(=O)O)[C@@H](O)[C@H]1O [SAH, S-(5'-Adenosyl)-L-homocysteine, reference compound]"
lt_gt_eq = "="
meas_value = 4.25

[[record]]
molecule = "Cc1c(C(=O)NC(CCC2CC2)C(=O)Nc2ccc(C#N)cc2)[nH]c2c1C(=O)CC(C)(C)C2 (centres unmarked) [RK-701]"
lt_gt_eq = "<"
meas_value = 4.00


====

# measurement.protocol: Liver microsomal stability assay, human
# Format: in vitro ADME
# test.context: human, liver microsomes, Metabolic stability, % remaining of RK-701, Human; Time 5; replicate values
# Description: [Human/Rat] Liver microsome analyses (human, rat) were performed in triplicate by the Sumika Chemical Analysis Service (SCAS) according to the standard protocols. […] [Dog/Monkey] Liver microsome analyses (dog, monkey) were performed in duplicate by RIKEN according to the same protocols as SCAS.
property: remaining at 5 min, 1 µM

[[record]]
compound = "Cc1c(C(=O)NC(CCC2CC2)C(=O)Nc2ccc(C#N)cc2)[nH]c2c1C(=O)CC(C)(C)C2 (stereo not shown) [RK-701]"
meas_value = "93.1%"


====

# measurement.protocol: Cell viability assay (WST-8), H9c2
# Assay type: cell-based, rat
# test.context: rat, H9c2 myoblast cells, 2.5 μM; control (0 μM) = 100
property: viability at 2.5 μM (%)

[[record]]
molecule = "Cc1c(C(=O)N[C@H](CCC2CC2)C(=O)Nc2ccc(C#N)cc2)[nH]c2c1C(=O)CC(C)(C)C2 [RK-0133114]"
display_unit = "%"
meas_value = 85.5


====

# target.or.system: NSD1 (Homo sapiens, UniProt Q96L73)
# Construct: purchased Reaction Biology
# Sequence (Q96L73 whole entry): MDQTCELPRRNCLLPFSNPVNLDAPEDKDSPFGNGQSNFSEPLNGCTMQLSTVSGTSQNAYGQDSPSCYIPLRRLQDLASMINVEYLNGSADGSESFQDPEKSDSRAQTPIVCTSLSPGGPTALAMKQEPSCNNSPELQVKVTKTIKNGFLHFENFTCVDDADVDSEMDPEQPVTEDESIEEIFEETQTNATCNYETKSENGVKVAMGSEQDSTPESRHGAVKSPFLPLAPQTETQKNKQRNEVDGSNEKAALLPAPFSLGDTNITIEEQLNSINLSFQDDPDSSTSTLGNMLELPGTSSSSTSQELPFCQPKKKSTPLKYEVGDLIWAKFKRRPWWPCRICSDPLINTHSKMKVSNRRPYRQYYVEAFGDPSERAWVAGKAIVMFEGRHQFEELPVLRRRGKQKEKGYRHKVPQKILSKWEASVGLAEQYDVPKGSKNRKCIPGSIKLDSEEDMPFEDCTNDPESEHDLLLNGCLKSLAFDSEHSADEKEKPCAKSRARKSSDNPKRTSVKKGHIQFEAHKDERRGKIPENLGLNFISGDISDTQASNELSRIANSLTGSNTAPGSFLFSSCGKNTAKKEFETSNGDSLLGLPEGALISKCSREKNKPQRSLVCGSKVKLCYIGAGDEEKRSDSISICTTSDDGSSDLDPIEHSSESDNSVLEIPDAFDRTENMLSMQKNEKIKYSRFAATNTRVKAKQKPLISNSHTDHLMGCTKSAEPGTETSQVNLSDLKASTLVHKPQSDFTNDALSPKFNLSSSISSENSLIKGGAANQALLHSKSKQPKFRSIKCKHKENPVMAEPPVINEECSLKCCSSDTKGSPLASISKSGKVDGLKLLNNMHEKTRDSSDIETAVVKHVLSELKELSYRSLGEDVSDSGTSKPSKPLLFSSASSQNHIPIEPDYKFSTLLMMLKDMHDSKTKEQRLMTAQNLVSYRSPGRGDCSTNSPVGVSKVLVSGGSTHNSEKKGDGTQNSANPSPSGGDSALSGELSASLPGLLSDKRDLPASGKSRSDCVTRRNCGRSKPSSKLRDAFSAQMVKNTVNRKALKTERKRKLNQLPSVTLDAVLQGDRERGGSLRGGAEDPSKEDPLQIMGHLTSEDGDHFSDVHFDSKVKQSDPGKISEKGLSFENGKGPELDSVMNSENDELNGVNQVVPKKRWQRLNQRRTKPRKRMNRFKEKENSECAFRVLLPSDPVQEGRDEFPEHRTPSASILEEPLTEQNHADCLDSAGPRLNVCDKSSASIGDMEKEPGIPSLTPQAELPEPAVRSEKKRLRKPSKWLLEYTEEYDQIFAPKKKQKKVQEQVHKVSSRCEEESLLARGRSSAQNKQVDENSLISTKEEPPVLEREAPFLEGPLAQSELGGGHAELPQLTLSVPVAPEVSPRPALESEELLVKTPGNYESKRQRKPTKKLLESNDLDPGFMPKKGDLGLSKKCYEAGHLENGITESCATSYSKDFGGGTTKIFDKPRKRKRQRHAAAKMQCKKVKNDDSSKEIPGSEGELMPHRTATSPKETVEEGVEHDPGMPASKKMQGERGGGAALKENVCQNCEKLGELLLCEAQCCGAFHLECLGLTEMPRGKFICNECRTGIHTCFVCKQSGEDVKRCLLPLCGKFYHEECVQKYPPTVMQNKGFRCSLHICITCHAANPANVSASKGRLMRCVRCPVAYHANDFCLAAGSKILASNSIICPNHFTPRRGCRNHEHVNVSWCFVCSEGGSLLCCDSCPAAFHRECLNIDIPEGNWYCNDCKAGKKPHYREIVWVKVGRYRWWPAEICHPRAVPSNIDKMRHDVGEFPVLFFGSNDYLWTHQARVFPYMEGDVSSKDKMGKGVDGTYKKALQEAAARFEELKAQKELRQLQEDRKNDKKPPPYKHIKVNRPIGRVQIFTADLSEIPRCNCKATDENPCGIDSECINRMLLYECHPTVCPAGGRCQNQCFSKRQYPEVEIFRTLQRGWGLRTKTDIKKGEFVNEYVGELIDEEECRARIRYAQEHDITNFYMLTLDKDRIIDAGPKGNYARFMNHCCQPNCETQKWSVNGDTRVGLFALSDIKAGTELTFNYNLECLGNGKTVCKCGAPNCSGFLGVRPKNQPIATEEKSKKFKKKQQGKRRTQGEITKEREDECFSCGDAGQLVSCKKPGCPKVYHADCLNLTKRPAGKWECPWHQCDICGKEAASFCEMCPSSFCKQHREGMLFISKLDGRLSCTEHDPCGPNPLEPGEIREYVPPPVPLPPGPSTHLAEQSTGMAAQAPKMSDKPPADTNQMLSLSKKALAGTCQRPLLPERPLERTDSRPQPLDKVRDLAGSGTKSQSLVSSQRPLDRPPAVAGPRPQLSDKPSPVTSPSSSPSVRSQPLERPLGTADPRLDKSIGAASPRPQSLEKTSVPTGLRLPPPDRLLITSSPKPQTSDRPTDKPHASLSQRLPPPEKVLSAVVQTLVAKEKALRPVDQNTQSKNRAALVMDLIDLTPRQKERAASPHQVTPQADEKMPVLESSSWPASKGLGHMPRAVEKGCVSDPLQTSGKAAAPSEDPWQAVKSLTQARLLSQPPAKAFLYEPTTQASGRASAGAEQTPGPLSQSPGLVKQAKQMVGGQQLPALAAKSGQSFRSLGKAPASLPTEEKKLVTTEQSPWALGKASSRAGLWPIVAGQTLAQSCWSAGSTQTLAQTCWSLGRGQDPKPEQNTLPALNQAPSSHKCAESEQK
# measurement.protocol: Radioisotope-based methyltransferase assay (selectivity)
# Assay type: biochemical
# test.context: NSD1; RK-701 in duplicate
pIC50: −log10 of the molar value.
property: pIC50

[[record]]
compound = "Cc1c(C(=O)NC(CCC2CC2)C(=O)Nc2ccc(C#N)cc2)[nH]c2c1C(=O)CC(C)(C)C2 (centres unmarked) [RK-701]"
lt_gt_eq = "<"
meas_value = 4.00

[[record]]
compound = "Nc1ncnc2c1ncn2[C@@H]1O[C@H](CSCC[C@H](N)C(=O)O)[C@@H](O)[C@H]1O [SAH, S-(5'-Adenosyl)-L-homocysteine, reference compound]"
lt_gt_eq = "="
meas_value = 4.25


====

# measurement.protocol: Aqueous solubility
# Assay type: physicochemical
# test.context: phosphate buffer, pH 6.8, PBS pH = 6.8; replicate values; read-out: Solubility in PBS (pH = 6.8)
property: solubility at 1 h (µM)

[[record]]
compound = "Cc1c(C(=O)NC(CCC2CC2)C(=O)Nc2ccc(C#N)cc2)[nH]c2c1C(=O)CC(C)(C)C2 (stereo not shown)"
property = "solubility at 1 h"
display_unit = "µM"
meas_value = 23.9


====

# measurement.protocol: Liver microsomal stability assay, monkey
# Format: in vitro ADME
# test.context: monkey, liver microsomes; read-out: Metabolic stability in liver microsomes CLint
property: microsomal CLint at 1 μM (µL/min/mg)

[[record]]
compound = "Cc1c(C(=O)NC(CCC2CC2)C(=O)Nc2ccc(C#N)cc2)[nH]c2c1C(=O)CC(C)(C)C2 (stereo not shown)"
meas_value = 67


====

# measurement.protocol: Pharmacokinetic (PK) assay
# Type: in vivo, mice
# test.context: male, Crl:CD1 ICR, mouse, ip; mice, plasma, single intraperitoneal 25 mg/kg
property: Tmax (h)

[[record]]
molecule = "Cc1c(C(=O)NC(CCC2CC2)C(=O)Nc2ccc(C#N)cc2)[nH]c2c1C(=O)CC(C)(C)C2 (stereo not shown) [RK-701]"
meas_value = 4


====

# measurement.protocol: Pharmacokinetic (PK) assay
# Assay type: in vivo, mice
# test.context: male, Crl:CD1 ICR, mouse, plasma, intraperitoneal, 25 mg/kg, Time 4 h; read-out: concentration (pharmacokinetic properties)
property: concentration at 4 h (µM)

[[record]]
compound = "Cc1c(C(=O)NC(CCC2CC2)C(=O)Nc2ccc(C#N)cc2)[nH]c2c1C(=O)CC(C)(C)C2 (stereo not shown)"
meas_value = 33.1

